Test system: Saccharomyces cerevisiae BY4741 SeMeCo community
Experiment: z-score of subpopulation abundance vs DMSO median, subpopulation auxotrophic for HU; higher = larger share of this subpopulation than in DMSO controls
Details: 10 µM; 24 h; SM minimal medium; subpopulation (auxotrophy): HU
Where a name gives a salt, the structure may show the parent alone.
ASSAY METRIC: z-score of subpopulation abundance

response.value for NC(=NCCCCCCN=C(N)N=C(N)Nc1ccc(Cl)cc1)N=C(N)Nc1ccc(Cl)cc1 [Chlorhexidine?2HCl] (field: z-score of subpopulation abundance) = 0.25

response.value for CN1[C@@H]2CC[C@H]1C[C@@H](OC(=O)c1c[nH]c3ccccc13)C2 [Tropisetron HCl] (field: z-score of subpopulation abundance) = -0.68

response.value for CN(C)CCC=C1c2ccccc2C(C)(C)c2ccccc21 [Melitracen hydrochloride] (field: z-score of subpopulation abundance) = -0.73

response.value for CCCCc1oc2ccccc2c1C(=O)c1cc(I)c(OCCN(CC)CC)c(I)c1 [Amiodarone HCl] (field: z-score of subpopulation abundance) = 4.02

response.value for COc1ccc2[nH]c([S+]([O-])Cc3ncc(C)c(OC)c3C)nc2c1 (configuration not stated) (field: z-score of subpopulation abundance) = 0.46

response.value for CC(C(=O)O)c1ccc2c(c1)[nH]c1ccc(Cl)cc12 (configuration not stated) (field: z-score of subpopulation abundance) = -2.04

====

System: Saccharomyces cerevisiae BY4741 SeMeCo community
Experiment: z-score of subpopulation abundance vs DMSO median, subpopulation auxotrophic for M; higher = larger share of this subpopulation than in DMSO controls
Settings: 10 µM; 24 h; SM minimal medium; subpopulation (auxotrophy): M
Structures can show the parent of a compound that is named as a salt.
Use 1 (yes) when the recorded z-score of subpopulation abundance is no lower than -0.2; use 0 (no) when it is lower.

Field: example entries. Status: answers known.
CC[C@H]1OC(=O)C[C@@H](O)[C@H](C)[C@@H](O[C@@H]2O[C@H](C)[C@@H](O[C@H]3C[C@@](C)(O)[C@@H](O)[C@H](C)O3)[C@H](N(C)C)[C@H]2O)[C@@H](CC=O)C[C@@H](C)C(=O)/C=C/C(C)=C/[C@@H]1CO[C@@H]1O[C@H](C)[C@@H](O)[C@@H](OC)[C@H]1OC; 0 (no)
N[C@@H](CCC(=O)O)C(=O)O [(S)-Glutamic acid]; 0 (no)
Cc1ncc([N+](=O)[O-])n1C; 0 (no)

Could you verify whether the entry CCC[C@@H]1C[C@@H](C(=O)N[C@@H]([C@H]2O[C@H](SC)[C@H](O)[C@@H](O)[C@H]2O)[C@H](C)Cl)N(C)C1 [Clindamycin HCl] shows z-score of subpopulation abundance of no less than -0.2?
1 (yes)

Could you verify whether the entry COc1ccc2cc3[n+](cc2c1OC)CCc1cc2c(cc1-3)OCO2 [Berberine Sulfate] shows z-score of subpopulation abundance of no less than -0.2?
1 (yes)

====

Test system: Saccharomyces cerevisiae BY4741 SeMeCo community
Assay: z-score of prototroph abundance vs DMSO median; higher = larger share of this subpopulation than in DMSO controls
Settings: 10 µM; 24 h; SM minimal medium; subpopulation (auxotrophy): Prototroph
Classes based on z-score of prototroph abundance: low group (below -0.3), middle group (-0.3 to below 0.6), high group (0.6 or more)

GET /class?item= CCCCCC(=O)O[C@]1(C(C)=O)CC[C@H]2[C@@H]3CCC4=CC(=O)CC[C@]4(C)[C@H]3CC[C@@]21C [Hydroxyprogesterone caproate]
low group

GET /class?item= "O=C1CCc2cc(OCCCCc3nnnn3C3CCCCC3)ccc2N1"
high group

GET /class?item= "Cc1c(OCC(F)(F)F)ccnc1C[S@@+]([O-])c1nc2ccccc2[nH]1"
middle group
